Reported pKi, 5-hydroxytryptamine receptor 1B (Homo sapiens).
Remember the convention: pKi equals -log10 of concentration in molar.

### Prompt Write down measured pKi (5-hydroxytryptamine receptor 1B (Homo sapiens)) for this compound. NCCc1c[nH]c2ccc(OCCCC(=O)N3CCN(c4ccc([N+](=O)[O-])cc4)CC3)cc12
### Response 8.30

### Prompt State recorded pKi with 5-hydroxytryptamine receptor 1B (Homo sapiens), entry CN(C)CCc1c[nH]c2ccc(C[C@H]3COC(=O)N3)cc12 , no comment.
### Response 8.40

### Prompt Tell me its pKi on 5-hydroxytryptamine receptor 1B (Homo sapiens): NCCc1c[nH]c2ccc(OCC(=O)N3CCN(c4ccc(N)cc4)CC3)cc12
### Response 8.80

### Prompt Find pKi for NCCc1c[nH]c2ccc(OCC(=O)N3CCN(c4ccc(CN)cc4)CC3)cc12 on 5-hydroxytryptamine receptor 1B (Homo sapiens) and write it down.
### Response 8.60

### Prompt GET pKi where system = 5-hydroxytryptamine receptor 1B (Homo sapiens) and item = NCCc1c[nH]c2ccc(OCC(=O)N3CCN(c4ccccc4[N+](=O)[O-])CC3)cc12
### Response 9.52

### Prompt # assay system 5-hydroxytryptamine receptor 1B (Homo sapiens): give pKi of NCCc1c[nH]c2ccc(OCC(=O)N3CCN(c4ccccc4CN)CC3)cc12
### Response 8.74

### Prompt Provide pKi, tested on 5-hydroxytryptamine receptor 1B (Homo sapiens), for NCCc1c[nH]c2ccc(OCC(=O)N3CCN(c4ccc([N+](=O)[O-])cc4)CC3)cc12 .
### Response 9.08
